These measurements were taken from the CheMixHub drug solubility set.

# test method notes: xn = mol fraction of the nth substance listed, in the solute-free solvent
# condition parameters: 288.15 K; x2 = 0.2307
Each entry gets No if its solubility (g/100 g solution) stays under 0.2, and Yes if its solubility (g/100 g solution) is 0.2 or above.

Nc1cccc(S(=O)(=O)c2cccc(N)c2)c1 + CC(C)O + O ... Yes
c1ccc2[nH]c(-c3cscn3)nc2c1 + CCCO + O ... No
Nc1nccnc1Cl + CC(C)O + O ... Yes
CN1CCN(C2=Nc3cc(Cl)ccc3Nc3ccccc32)CC1 + CC(C)O + O ... Yes
c1ccc2[nH]c(-c3cscn3)nc2c1 + CC(C)O + O ... No
Cc1[nH]c(=O)c(C#N)cc1-c1ccncc1 + CC(C)O + O ... No

====

# test method notes: xn = mol fraction of the nth substance listed, in the solute-free solvent
# condition parameters: 308.15 K; x2 = 0.6101
value kind: solubility (g/100 g solution)

Nc1cccc(S(=O)(=O)c2cccc(N)c2)c1 + CCO + O ... 2.19
CC(C)OC(=O)C(C)NP(=O)(OCC1OC(n2ccc(=O)[nH]c2=O)C(C)(F)C1O)Oc1ccccc1 (centres undefined) + CCO + O ... 37.2
COc1cc2c(cc1OC)-c1cc3ccc(OC)c(OC)c3c[n+]1CC2.[Cl-] + CCO + O ... 5.16
Cc1[nH]c(=O)c(C#N)cc1-c1ccncc1 + CCO + O ... 0.00959

====

Reported solubility (g/100 g solution) is given for each of the following molecules.
# test method notes: xn = mol fraction of the nth substance listed, in the solute-free solvent
# condition parameters: 323.15 K; x2 = 0.8
value kind: solubility (g/100 g solution)

OCCN(CCO)c1nc(N2CCCCC2)c2nc(N(CCO)CCO)nc(N3CCCCC3)c2n1 + CC(C)O + O ... 24
S=c1[nH]ncs1 + CO + O ... 31.5
CC(N)C(=O)O (stereo not drawn) + O + CC(C)O ... 4.04
CCCCCOC(=O)Nc1nc(=O)n(C2OC(C)C(O)C2O)cc1F (stereo not drawn) + CCOC(C)=O + CCCCCCC ... 3.74
CC(N)C(=O)O (stereo not drawn) + O + CO ... 7.21
OCCN(CCO)c1nc(N2CCCCC2)c2nc(N(CCO)CCO)nc(N3CCCCC3)c2n1 + CCO + O ... 25.6
S=c1[nH]ncs1 + CCCO + O ... 24.1
CC(N)C(=O)O (stereo not drawn) + O + CCCO ... 5.2
CC(N)C(=O)O (stereo not drawn) + O + CCO ... 4.97
S=c1[nH]ncs1 + CC(C)=O + O ... 37.4
S=c1[nH]ncs1 + CCO + O ... 27.6
CC(N)C(=O)O (stereo not drawn) + O + CC(C)=O ... 3.18
OCCN(CCO)c1nc(N2CCCCC2)c2nc(N(CCO)CCO)nc(N3CCCCC3)c2n1 + CO + O ... 20.9

====

# test method notes: xn = mol fraction of the nth substance listed, in the solute-free solvent
# condition parameters: 288.15 K; x2 = 0.6
Each entry gets NOT MET if its solubility (g/100 g solution) stays under 8, and MET if its solubility (g/100 g solution) is 8 or above.

S=c1[nH]ncs1 + CCCO + O ... MET
Cc1ncc(C[n+]2csc(CCO)c2C)c(N)n1.O=[N+]([O-])[O-] + O + CC(C)=O ... NOT MET
CCCCCOC(=O)Nc1nc(=O)n(C2OC(C)C(O)C2O)cc1F (stereo not drawn) + CCOC(C)=O + CCCCCC ... NOT MET
S=c1[nH]ncs1 + CCO + O ... MET
Cc1ncc(C[n+]2csc(CCO)c2C)c(N)n1.O=[N+]([O-])[O-] + O + CO ... NOT MET
Cc1ncc(C[n+]2csc(CCO)c2C)c(N)n1.O=[N+]([O-])[O-] + O + CC(C)O ... NOT MET
S=c1[nH]ncs1 + CC(C)=O + O ... MET

====

# test method notes: xn = mol fraction of the nth substance listed, in the solute-free solvent
# condition parameters: 303.15 K; x2 = 0.5454
value kind: solubility (g/100 g solution)

c1ccc2[nH]c(-c3cscn3)nc2c1 + CC(C)O + O ... 0.301
CN1CCN(C2=Nc3cc(Cl)ccc3Nc3ccccc32)CC1 + CC(C)O + O ... 1.72
Nc1nccnc1Cl + CC(C)O + O ... 1.18
Nc1cccc(S(=O)(=O)c2cccc(N)c2)c1 + CC(C)O + O ... 1.11
Cc1[nH]c(=O)c(C#N)cc1-c1ccncc1 + CC(C)O + O ... 0.0177
c1ccc2[nH]c(-c3cscn3)nc2c1 + CCCO + O ... 0.62

====

# test method notes: xn = mol fraction of the nth substance listed, in the solute-free solvent
# condition parameters: 318.15 K; x2 = 0.03225
Each entry gets NOT MET if its solubility (g/100 g solution) stays under 0.01, and MET if its solubility (g/100 g solution) is 0.01 or above.

Nc1cccc(S(=O)(=O)c2cccc(N)c2)c1 + CC(C)O + O ... MET
Nc1nccnc1Cl + CC(C)O + O ... MET
Cc1[nH]c(=O)c(C#N)cc1-c1ccncc1 + CC(C)O + O ... NOT MET
c1ccc2[nH]c(-c3cscn3)nc2c1 + CCCO + O ... MET
CN1CCN(C2=Nc3cc(Cl)ccc3Nc3ccccc32)CC1 + CC(C)O + O ... MET
c1ccc2[nH]c(-c3cscn3)nc2c1 + CC(C)O + O ... NOT MET

====

Reported solubility (g/100 g solution) is given for each of the following compounds.
# test method notes: xn = mol fraction of the nth substance listed, in the solute-free solvent
# condition parameters: 278.15 K; x2 = 0.7
value kind: solubility (g/100 g solution)

Cc1ncc(C[n+]2csc(CCO)c2C)c(N)n1.O=[N+]([O-])[O-] + O + CO ... 1.17
S=c1[nH]ncs1 + CO + O ... 6.84
CCCCCOC(=O)Nc1nc(=O)n(C2OC(C)C(O)C2O)cc1F (stereo not drawn) + CCOC(C)=O + CCCCCCC ... 0.266
S=c1[nH]ncs1 + CCO + O ... 8.26
S=c1[nH]ncs1 + CCCO + O ... 7.61
S=c1[nH]ncs1 + CC(C)=O + O ... 22.6
Cc1ncc(C[n+]2csc(CCO)c2C)c(N)n1.O=[N+]([O-])[O-] + O + CC(C)O ... 0.637
Cc1ncc(C[n+]2csc(CCO)c2C)c(N)n1.O=[N+]([O-])[O-] + O + CC(C)=O ... 1.08

====

# test method notes: xn = mol fraction of the nth substance listed, in the solute-free solvent
# condition parameters: 298.15 K; x2 = 0.7
Each entry gets rule not met if its solubility (g/100 g solution) stays under 7, and rule met if its solubility (g/100 g solution) is 7 or above.

OCCN(CCO)c1nc(N2CCCCC2)c2nc(N(CCO)CCO)nc(N3CCCCC3)c2n1 + CC(C)O + O ... rule met
S=c1[nH]ncs1 + CC(C)=O + O ... rule met
OCCN(CCO)c1nc(N2CCCCC2)c2nc(N(CCO)CCO)nc(N3CCCCC3)c2n1 + CO + O ... rule not met
S=c1[nH]ncs1 + CCCO + O ... rule met
CCCCCOC(=O)Nc1nc(=O)n(C2OC(C)C(O)C2O)cc1F (stereo unspecified) + CCOC(C)=O + CCCCCCC ... rule not met
Cc1ncc(C[n+]2csc(CCO)c2C)c(N)n1.O=[N+]([O-])[O-] + O + CC(C)O ... rule not met
S=c1[nH]ncs1 + CCO + O ... rule met
OCCN(CCO)c1nc(N2CCCCC2)c2nc(N(CCO)CCO)nc(N3CCCCC3)c2n1 + CCO + O ... rule met
Cc1ncc(C[n+]2csc(CCO)c2C)c(N)n1.O=[N+]([O-])[O-] + O + CC(C)=O ... rule not met
Cc1ncc(C[n+]2csc(CCO)c2C)c(N)n1.O=[N+]([O-])[O-] + O + CO ... rule not met
S=c1[nH]ncs1 + CO + O ... rule met

====

# test method notes: xn = mol fraction of the nth substance listed, in the solute-free solvent
# condition parameters: 308.15 K; x2 = 0.2
Each entry gets FALSE if its solubility (g/100 g solution) stays under 4, and TRUE if its solubility (g/100 g solution) is 4 or above.

S=c1[nH]ncs1 + CC(C)=O + O ... TRUE
S=c1[nH]ncs1 + CO + O ... TRUE
S=c1[nH]ncs1 + CCCO + O ... TRUE
S=c1[nH]ncs1 + CCO + O ... TRUE
Cc1ncc(C[n+]2csc(CCO)c2C)c(N)n1.O=[N+]([O-])[O-] + O + CO ... FALSE
